Biological target: Adrenergic receptor alpha-1 (Rattus norvegicus, UniProt P15823+P23944+P43140)
Experiment: Binding affinity towards alpha-1 adrenergic receptor using [3H]prazosin as radioligand in competitive binding assay
Type: protein assay
Readout Type: Ki

NC[C@H]1O[C@@H](c2ccccc2)Cc2c1ccc(O)c2O
6.06 µM
NC[C@@H]1OC(C2CCCCC2)Cc2c1ccc(O)c2O (stereo partly specified)
> 10 µM

For each of the compounds below, note its Ki.
1. C=CCNC[C@@H]1OC(C2CCCCC2)Cc2c1ccc(O)c2O (stereo partly specified)
2. NC[C@@H]1O[C@H](c2ccccc2)Cc2c1ccc(O)c2O
3. CC(C)(C)C1Cc2c(ccc(O)c2O)[C@H](CN)O1 (stereo partly specified)
4. NC[C@@H]1OC(c2ccccc2)Cc2c1ccc(O)c2O (stereo partly specified)

> 10 µM
> 10 µM
> 10 µM
10.8 µM
